molecular target: histamine-3 receptors (H3 receptor) (Rattus norvegicus); construct: from tissue; host or cells: male Sprague-Dawley rat brain cortex membranes; assay: (3H)-N-α-methylhistamine binding to rat cortical membranes; conditions: male Sprague-Dawley rat brain cortical membranes; (3H)-N-α-methylhistamine ~0.6 nM; 30 minutes at 25° C.; Cheng-Prusoff equation; read-out: Ki
Sequence (Q9QYN8 whole entry): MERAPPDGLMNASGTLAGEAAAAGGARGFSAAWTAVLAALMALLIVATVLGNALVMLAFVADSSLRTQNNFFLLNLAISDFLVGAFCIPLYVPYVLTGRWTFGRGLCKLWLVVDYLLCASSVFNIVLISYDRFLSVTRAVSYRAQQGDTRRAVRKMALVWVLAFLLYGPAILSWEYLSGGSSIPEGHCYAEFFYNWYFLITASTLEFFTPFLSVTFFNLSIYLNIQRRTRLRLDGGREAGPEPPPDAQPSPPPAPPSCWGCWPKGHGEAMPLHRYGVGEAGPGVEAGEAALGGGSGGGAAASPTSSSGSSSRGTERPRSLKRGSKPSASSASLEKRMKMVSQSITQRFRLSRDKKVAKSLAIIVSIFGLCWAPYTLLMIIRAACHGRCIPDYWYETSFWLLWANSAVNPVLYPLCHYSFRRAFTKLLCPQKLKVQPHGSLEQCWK
// reported log10 Ki for each item listed
Values are log10 of Ki in µM.

compound: C[C@@H]1CCCN1CCc1cc2cc(C(=O)C3CC3)ccc2o1
log10 Ki: -2.00

compound: C=CCNCCc1cc2cc(-c3ccc(C(=O)N4CCOCC4)cn3)ccc2o1
log10 Ki: 0.00

compound: CN(C)CCc1cc2cc(-c3ccc(C(=O)N4CCOCC4)cc3)ccc2o1
log10 Ki: -0.83

compound: COc1cccc(C(=O)c2ccc3oc(CCN4CCC[C@H]4C)cc3c2)c1
log10 Ki: -2.96

compound: COC(=O)[C@@H]1CCCN1CCc1cc2cc(-c3ccc(C#N)cc3)ccc2o1
log10 Ki: 0.00

compound: CCCN(CC)CCc1cc2cc(-c3ccc(C(=O)N4CCOCC4)cc3)ccc2o1
log10 Ki: -1.49

**Query** Provide only the value of recorded log10 Ki for CC1CCCCN1CCc1cc2cc(-c3ccc(C(=O)N4CCOCC4)cc3)ccc2o1 (stereo not drawn)
**Result** -1.57

**Query** Quick one: give measured log10 Ki for CC(C)CN(C)CCc1cc2cc(-c3ccc(C(=O)N4CCOCC4)cc3)ccc2o1
**Result** -0.61

**Query** Using the record for O=C(c1ccc(-c2ccc3oc(CCN4CCC5(CC4)OCCO5)cc3c2)nc1)N1CCOCC1 , state its measured log10 Ki.
**Result** 0.00

**Query** Give a short answer stating reported log10 Ki for C[C@@H]1CCCN1CCc1cc2cc(C(=O)c3ccc(N(C)C)cc3)ccc2o1 .
**Result** -2.42

**Query** Give me measured log10 Ki, please, for this compound: CCC(CC)CC(=O)c1ccc2oc(CCN3CCC[C@H]3C)cc2c1
**Result** -2.40

**Query** Answer with the recorded log10 Ki for the compound listed here: CCN(CCc1cc2cc(-c3ccc(C(=O)N4CCOCC4)cc3)ccc2o1)C(C)C
**Result** -1.59

**Query** Output log10 Ki of C[C@@H]1CCCN1CCc1cc2cc(C(=O)c3cccc(Cl)c3)ccc2o1
**Result** -2.70

**Query** # return recorded log10 Ki for entry N#Cc1ccc(-c2ccc3oc(CCN4CC[C@@H](O)C4)cc3c2)cc1
**Result** -1.02

**Query** Identify the reported log10 Ki for the following entry. CC(C)N(C)CCc1cc2cc(-c3ccc(C(=O)N4CCOCC4)cn3)ccc2o1
**Result** -0.98
